# IC50 per record follows
target: glycine binding site of the NMDA receptor (rat brain synaptic membrane) (Rattus norvegicus); construct: A crude rat brain synaptic membrane preparation; assay: [3H]-DCKA binding test; conditions: 10 nM [3H]-DCKA, 2° C., 10 min, pH 7.4; read-out: IC50, inhibition of [3H]-DCKA binding
Where a name gives a salt, the structure may show the parent alone.
metric: IC50 (nM)

INSERT INTO assay_data (compound, assay_result) VALUES
  ('C[C@H](Oc1cc(CN)ccc1NC(=O)C[C@@H]1CCc2cc(Cl)cc3[nH]c(C(=O)O)c1c23)C(=O)O [D-2, Hydrochloride, reference compound]', 16),
  ('C[C@@H](Oc1cc(CN)ccc1NC(=O)C[C@@H]1CCc2cc(Cl)cc3[nH]c(C(=O)O)c1c23)C(=O)O [C-4, Hydrochloride]', 1.4);
